- Species: Homo sapiens
- METHOD NOTES: To identify inhibition of the IFN signalling (Jak-Stat) pathway via expression of an eGFP reporter gene under the control of an IFN-stimulated response element (ISRE) containing MxA promoter.
- Assay type: functional
- Parameters: scale not given: direction of the effect not stated beside the values
- SETTINGS: 30 µM
QUANTITY MEASURED: Percent Effect (%)
// note: answer is a bare numeric in %

molecule="COc1ccc(CN2C[C@@H]3OCCN(CC4CCCO4)[C@@H]3C2)cc1 (stereo partly drawn)" unit_abbrev=% reported=3.23
molecule=Cc1cc(F)ccc1OC1(C(=O)O)CCN(Cc2ccncc2)CC1 unit_abbrev=% reported=10
molecule="COCCN1CCN(Cc2cccc(C(=O)N(C)C)c2)CC1C (stereo not drawn)" unit_abbrev=% reported=6.69
molecule=N#CC1(C(=O)NCCCNc2ccc(C(F)(F)F)cn2)CCCC1 unit_abbrev=% reported=23
molecule=O=C(c1ccco1)N1C[C@H]2CCCN(Cc3cccs3)[C@H]2C1 unit_abbrev=% reported=28.2

Moving on to another molecule below.
Given Cc1nccn1C1CCCN(C(=O)COCC(F)(F)F)C1 (stereo not drawn) , state its recorded Percent Effect. -3.59

----------
- TARGET ENTITY: Protein translocase subunit SecA (Escherichia coli (strain K12)) (UniProt P10408)
- Sequence (P10408 whole entry): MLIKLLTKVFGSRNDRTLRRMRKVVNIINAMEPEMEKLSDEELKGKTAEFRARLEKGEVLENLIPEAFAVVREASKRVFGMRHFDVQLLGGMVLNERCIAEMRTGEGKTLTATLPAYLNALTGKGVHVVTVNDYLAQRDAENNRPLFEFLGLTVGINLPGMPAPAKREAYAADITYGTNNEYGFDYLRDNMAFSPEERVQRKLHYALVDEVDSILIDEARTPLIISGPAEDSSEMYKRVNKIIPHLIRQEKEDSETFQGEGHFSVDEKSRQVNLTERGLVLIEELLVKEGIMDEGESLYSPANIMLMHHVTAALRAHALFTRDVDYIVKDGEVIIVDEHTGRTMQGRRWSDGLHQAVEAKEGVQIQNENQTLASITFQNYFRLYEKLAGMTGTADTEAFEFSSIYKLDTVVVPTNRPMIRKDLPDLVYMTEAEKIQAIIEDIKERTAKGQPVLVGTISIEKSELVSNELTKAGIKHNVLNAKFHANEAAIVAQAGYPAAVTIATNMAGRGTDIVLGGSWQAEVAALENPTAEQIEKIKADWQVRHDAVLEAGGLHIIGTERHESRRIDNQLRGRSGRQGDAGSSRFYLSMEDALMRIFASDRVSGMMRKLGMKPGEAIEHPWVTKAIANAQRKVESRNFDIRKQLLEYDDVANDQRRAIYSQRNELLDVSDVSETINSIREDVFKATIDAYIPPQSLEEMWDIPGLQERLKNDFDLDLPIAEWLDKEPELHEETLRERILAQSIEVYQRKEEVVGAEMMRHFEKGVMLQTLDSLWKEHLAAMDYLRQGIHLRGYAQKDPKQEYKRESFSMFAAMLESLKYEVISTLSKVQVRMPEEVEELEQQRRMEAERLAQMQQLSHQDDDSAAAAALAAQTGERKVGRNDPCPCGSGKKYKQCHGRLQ
- METHOD NOTES: Assay to Identify E. coli SecA ATPase Inhibitors
- Type: functional
- Set-up: scale not given: direction of the effect not stated beside the values
- SETTINGS: 30 µM
Potency and affinity values are given separately.
QUANTITY MEASURED: Percent Effect (%)
Give just the number in %; leave the unit off.

Which measured Percent Effect value corresponds to CC(CN1CCOCC1)NCC1CCN(c2cnn(C)c(=O)c2)CC1 (stereo not drawn) ? -4.77

----------
- TARGET ENTITY: Arginase-2, mitochondrial (Homo sapiens)
- METHOD NOTES: in vitro enzyme assay to detect the production of urea directly proportional to the activity of Arginase II; also: in the data most compounds retested in dose-response had high values
- Type: functional
- Design: scale not given: direction of the effect not stated beside the values
- SETTINGS: 33.3 µM
QUANTITY MEASURED: Percent Effect (%)
Numbers only here, please. The scale is %.

molecule="CCC1c2ccsc2CCN1C(=O)NCCNc1ncccn1 (stereo not given)" target_entity="Arginase-2, mitochondrial (Homo sapiens)" reported=6.15

So what does the record say about Percent Effect for CC(C)c1nc2n(n1)CC(NCc1nnnn1C1CC1)CC2 (stereo not given) ? -15.6

Bench note: what Percent Effect did Cc1nc(CNC(=O)NCCc2ccc(N(C)C)cc2)cs1 show? -5.61

Need Percent Effect of COCCn1ccc(=O)c(OCC(=O)Nc2cccc(C(C)=O)c2)c1C , thanks. -5.11

----------
- Species on record: Homo sapiens
- METHOD NOTES: To identify inhibition of the IFN signalling (Jak-Stat) pathway via expression of an eGFP reporter gene under the control of an IFN-stimulated response element (ISRE) containing MxA promoter.
- Assay type: functional
- Design: scale not given: direction of the effect not stated beside the values
- SETTINGS: 30 µM
Known Percent Effect of a selection of molecules
The reply should be a number in %, with the unit left off.

molecule=COc1cccc(CNC(=O)N2CCN(Cc3cc(C)on3)CC2)c1 quantity_measured="Percent Effect" reported=25.8
molecule="Cc1cnc(CN2CCCC(c3cc(C(F)(F)F)[nH]n3)C2)cn1 (stereo unspecified)" quantity_measured="Percent Effect" reported=10.5
molecule="CC(NC(=O)NCCCn1ccnc1)c1ccc2c(c1)OCCCO2 (stereo unspecified)" quantity_measured="Percent Effect" reported=12.7
molecule=Cc1nc([C@@H]2C[C@@H]3CCN(C(=O)c4ccnnc4)C[C@H]3O2)sc1C quantity_measured="Percent Effect" reported=16.5
molecule=COC(=O)C1CCN(C(=O)c2ccc(N(C)S(C)(=O)=O)c(C)c2)CC1 quantity_measured="Percent Effect" reported=-11.3

What value of measured Percent Effect is listed for CC(C)CN1C(=O)C2(CCN(Cc3nccs3)C2)c2ccccc21 (stereo unspecified) ? 37.2

Can you share its Percent Effect? I mean this molecule: O=C1CC[C@H]2[C@H](CCN2C(=O)C2CCCO2)N1Cc1ccncc1 (stereo partly specified) 12.9

# get_value(readout='Percent Effect', item= CN(CC1CN(Cc2cn3ccsc3n2)CCO1)c1cccnn1 (stereo unspecified) ) 15

Source of measurements: ChEMBL document CHEMBL3988442
